Entries and their IC50 values follow.
- Target Under Test: TAK1-TAB1 fusion protein (Homo sapiens)
- Construct: purchased Carna
- Sequence (O43318 with tags, fused parts or gaps limits assumed): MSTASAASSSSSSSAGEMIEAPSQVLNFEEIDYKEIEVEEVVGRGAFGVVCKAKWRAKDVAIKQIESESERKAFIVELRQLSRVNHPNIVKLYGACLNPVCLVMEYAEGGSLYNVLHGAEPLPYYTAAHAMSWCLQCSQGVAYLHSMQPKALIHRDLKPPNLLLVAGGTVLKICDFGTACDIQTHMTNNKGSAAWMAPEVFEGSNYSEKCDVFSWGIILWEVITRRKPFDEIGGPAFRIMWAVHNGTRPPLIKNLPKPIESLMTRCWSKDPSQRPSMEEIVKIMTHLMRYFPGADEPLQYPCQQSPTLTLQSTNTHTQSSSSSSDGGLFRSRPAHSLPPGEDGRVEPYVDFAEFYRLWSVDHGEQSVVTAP
- Assay: TAK1 biochemical assay (AlphaScreen, GST-MAP2K7 substrate)
- Experimental Setup: TAK1-TAB1 fusion protein, GST-MAP2K7 substrate; read-out: mean TAK1 IC50 (Col. A)
Counter-ions that a name gives are not always drawn.

Below, 3 compounds whose answers are already recorded.
Fill in the blank: the reported IC50 of CC(=O)N1CCC(n2cc(-c3cnc(N)c4oc(-c5cccc(OCC(F)(F)F)c5)cc34)cn2)CC1 is ____.
1 to 10 µM

// same read-out, input: CC(=O)N1CC(n2cc(-c3cnc(N)c4oc(-c5csc6cnccc56)cc34)cn2)C1
< 0.1 µM

// same read-out, input: COc1c(F)cccc1-c1cc2c(-c3cnn(C4CCNCC4)c3)cnc(N)c2o1 [Example 5, dihydrochloride]
1 to 10 µM

New cases:
Fill in the blank: the reported IC50 of Nc1ncc(-c2cnn(C3CCNCC3)c2)c2cc(-c3csc4ccccc34)oc12 is ____.
1 to 10 µM

====

- Target Under Test: TAK1-TAB1 fusion protein (Homo sapiens, UniProt O43318)
- Construct: purchased Carna
- Assay: TAK1 biochemical assay (AlphaScreen, GST-MAP2K7 substrate)
- Experimental Setup: TAK1-TAB1 fusion protein, GST-MAP2K7 substrate; read-out: mean TAK1 IC50 (Col. A)
Counter-ions that a name gives are not always drawn.
Entries and their IC50 values follow.

Fill in the blank: the reported IC50 of CC(=O)N1CCC(n2cc(-c3cnc(N)c4oc(-c5cccc(S(=O)(=O)N(C)C)c5)cc34)cn2)CC1 [Example 134] is ____.
1000 to 10000 nM

// same read-out, input: CC(=O)N1CCC(n2cc(-c3cnc(N)c4oc(-c5c(C)sc6cnccc56)cc34)cn2)CC1 [Example 253, trifluoroacetate]
< 100 nM

// same read-out, input: Cc1nn([C@H]2CC[C@H](O)CC2)cc1-c1cnc(N)c2oc(-c3csc4cnccc34)cc12 [Example 304]
1000 to 10000 nM

Moving on to another molecule below.
Fill in the blank: the reported IC50 of CC(=O)N1[C@@H]2CC[C@H]1C[C@H](n1cc(-c3cnc(N)c4oc(-c5csc6cnccc56)cc34)cn1)C2 [Example 325] is ____.
< 100 nM

====

- System: pJNK in HCT-116 cells
- Assay: Phospho-JNK (Thr183/Tyr185) Meso Scale ELISA assay, TNFα-stimulated HCT-116 cells
- Type: cell-based
- Experimental Setup: Homo sapiens, read-out: mean HCT-116 pJNK ELISA IC50 (Col. B)
Entries and their IC50 values follow.

Below, 8 molecules whose answers are already recorded.
Fill in the blank: the reported IC50 of CC(=O)N1CCC(n2cc(-c3cnc(N)c4oc(-c5cccc6ccnn56)cc34)cn2)CC1 is ____.
100 to 1000 nM

// same read-out, input: CN(C)C(=O)CCn1cc(-c2cnc(N)c3oc(-c4csc5cnccc45)cc23)cn1
1000 to 10000 nM

// same read-out, input: Nc1ncc(-c2cnn([C@H]3CC[C@H](O)CC3)c2)c2cc(-c3ccccc3)oc12
100 to 1000 nM

// same read-out, input: Nc1ncc(-c2cnn([C@H]3CC[C@H](O)CC3)c2)c2cc(-c3cccc4cnncc34)oc12
< 100 nM

// same read-out, input: CC(=O)N1CCC(n2cc(-c3cnc(N)c4oc(-c5cccc(O)c5)cc34)cn2)CC1
100 to 1000 nM

// same read-out, input: CC(=O)N1CCC(n2cc(-c3cnc(N)c4oc(-c5cccc6cnncc56)cc34)cn2)CC1
100 to 1000 nM

// same read-out, input: CNc1ncc(-c2cnn([C@H]3CC[C@H](O)CC3)c2)c2cc(-c3csc4cnc(F)cc34)oc12
< 100 nM

// same read-out, input: Nc1ncc(-c2cnn([C@H]3CC[C@H](O)CC3)c2)c2cc(-c3csc4cnc(Cl)cc34)oc12 [Example 247, bis(trifluoroacetate)]
100 to 1000 nM

Moving on to another molecule below.
Fill in the blank: the reported IC50 of CC(=O)N1CCC(n2cc(-c3cnc(N)c4oc(-c5csc6ccccc56)cc34)cn2)CC1 is ____.
100 to 1000 nM
